Provenance of the data: ChEMBL document CHEMBL5236651

System: Streptococcus pyogenes
testProtocol: Antibacterial activity against erythromycin-resistant Streptococcus pyogenes 12-1 assessed as inhibition of bacterial growth by CLSI based micro broth double dilution method
Assay type: functional
Reported MIC values for a set of molecules

Completed entries (count: 2):
{"chemSmiles": "CC[C@H]1OC(=O)[C@@](C)(F)C(=O)[C@H](C)[C@@H](O[C@@H]2O[C@H](C)C[C@H](N(C)C)[C@H]2O)[C@@](C)(OC)C[C@@H](C)C(=O)[C@H](C)[C@H]2N(CCCN(C(=O)c3ccccc3)c3ccnc4ccccc34)C(=O)O[C@]12C", "valueObserved": "> 32 µg/mL"}
{"chemSmiles": "CC[C@H]1OC(=O)[C@@](C)(F)C(=O)[C@H](C)[C@@H](O[C@@H]2O[C@H](C)C[C@H](N(C)C)[C@H]2O)[C@@](C)(OC)C[C@@H](C)C(=O)[C@H](C)[C@H]2N(CCCn3ccc(=O)c4ccccc43)C(=O)O[C@]12C", "valueObserved": "> 32 µg/mL"}

response.value for `CC[C@H]1OC(=O)[C@@](C)(F)C(=O)[C@H](C)[C@@H](O[C@@H]2O[C@H](C)C[C@H](N(C)C)[C@H]2O)[C@@](C)(OC)C[C@@H](C)C(=O)[C@H](C)[C@H]2N(CCCN(C)c3ccnc4ccccc34)C(=O)O[C@]12C` (field: MIC) = > 32 µg/mL

----------
Test system: Escherichia coli
testProtocol: Antibacterial activity against ESBL-positive Escherichia coli ATCC 35218 assessed as inhibition of bacterial growth by CLSI based micro broth double dilution method
Format: functional
Reported MIC values for a set of compounds

Completed entries (count: 3):
{"compound": "CC[C@H]1OC(=O)[C@@](C)(F)C(=O)[C@H](C)[C@@H](O[C@@H]2O[C@H](C)C[C@H](N(C)C)[C@H]2O)[C@@](C)(OC)C[C@@H](C)C(=O)[C@H](C)[C@H]2N(CCCN(Cc3ccccc3)c3cnc4ccccc4c3)C(=O)O[C@]12C", "valueObserved": "> 32 mg/L"}
{"compound": "CC[C@H]1OC(=O)[C@@](C)(F)C(=O)[C@H](C)[C@@H](O[C@@H]2O[C@H](C)C[C@H](N(C)C)[C@H]2O)[C@@](C)(OC)C[C@@H](C)C(=O)[C@H](C)[C@H]2N(CCCNc3cnc4ccccc4c3)C(=O)O[C@]12C", "valueObserved": "32 mg/L"}
{"compound": "CC[C@H]1OC(=O)[C@@](C)(F)C(=O)[C@H](C)[C@@H](O[C@@H]2O[C@H](C)C[C@H](N(C)C)[C@H]2O)[C@@](C)(OC)C[C@@H](C)C(=O)[C@H](C)[C@H]2N(CCCN(C(=O)/C=C/c3ccccc3)c3ccnc4ccccc34)C(=O)O[C@]12C", "valueObserved": "> 32 mg/L"}

response.value for `CC[C@H]1OC(=O)[C@@](C)(F)C(=O)[C@H](C)[C@@H](O[C@@H]2O[C@H](C)C[C@H](N(C)C)[C@H]2O)[C@@](C)(OC)C[C@@H](C)C(=O)[C@H](C)[C@H]2N(CCCN(C(=O)c3ccccc3)c3cnc4ccccc4c3)C(=O)O[C@]12C` (field: MIC) = > 32 mg/L

response.value for CC[C@H]1OC(=O)[C@H](C)C(=O)[C@H](C)[C@@H](O[C@@H]2O[C@H](C)C[C@H](N(C)C)[C@H]2O)[C@](C)(OC)C[C@@H](C)C(=O)[C@H](C)[C@H]2N(CCCCn3cnc(-c4cccnc4)c3)C(=O)O[C@]12C [TELITHROMYCIN] (field: MIC) = > 64 mg/L
